Values from patent US12139499B2

System: Endogenous Huntingtin Protein
measurement protocol: Endogenous Huntingtin Protein Assay (ELISA-based MSD electrochemiluminescence)
Type: cell-based
condition notes: Table 1
pIC50: −log10 of the molar value.
parameter: pIC50

- molecule: "Oc1cc(-c2cn[nH]c2)ccc1-c1cc2sc(N3CCC34CCCNC4)nc2nn1 (centres unmarked)"
  parameter: "pIC50"
  experimental value: "≥ 7.00"

Continue with the next molecule.
**Q:** Fill blank: measured pIC50 of the molecule "CN(c1nc2nnc(-c3ccc(-n4ccnc4)cc3O)cc2s1)C1CCNCC1" is ____.
**A:** 6.30 to 7.00

---

Test system: Endogenous Huntingtin Protein
measurement protocol: Endogenous Huntingtin Protein Assay (ELISA-based MSD electrochemiluminescence)
Format: cell-based
condition notes: Table 1
parameter: IC50

Use the examples below as a reference point.
- compound: "Cc1cn2nc(-c3cc(F)c4nc(C56CCN(CC5)CC6)sc4c3)cc(C)c2n1"
  IC50: "≤ 100 nM"
- compound: "Cc1cn2cc(-c3cc4sc(NC5CC6CCC(C5)N6)nc4cn3)cc(F)c2n1 (stereo not drawn)"
  IC50: "≤ 100 nM"

**Q:** Requested read-out: IC50. Entry: CN(c1nc2ccc(-c3cc(C#N)c4nn(C)cc4c3)nc2s1)C1CC2CCCC(C1)N2 (stereo not drawn)
**A:** ≤ 100 nM

**Q:** Query (compound): "Cc1cn2nc(-c3cc(F)c4nc(C5CCNCC5)sc4c3)cc(OCc3ccccc3)c2n1" ; field requested: IC50
**A:** ≤ 100 nM

**Q:** Consider the compound shown here: "Cc1cn2cc(-c3ccc4nc(N(C)C5CC(C)(C)NC(C)(C)C5)sc4c3)cc(F)c2n1" What is its recorded IC50?
**A:** ≤ 100 nM

**Q:** Which IC50 is reported for this compound? "Cc1nc2ccc(-c3cc4sc(N(C)C5CC(C)(C)NC(C)(C)C5)nc4cn3)cn2n1"
**A:** 100 to 500 nM

**Q:** Any idea what its IC50 is? The compound is "CCN(c1nc2cnc(-c3cc(C#N)c4nc(C)cn4c3)nc2s1)C1CC(C)(C)NC(C)(C)C1"
**A:** 100 to 500 nM

**Q:** Item under review: "Cc1nc2ccc(-c3ccc4nc(C5CCNCC5)sc4c3)cc2o1" . Reported IC50?
**A:** 100 to 500 nM

**Q:** Quick one: IC50 for CN1CCC(N(C)c2nc3nnc(-c4ccc(-c5c[nH]nc5F)cc4O)cc3s2)C1 (stereo not drawn) ?
**A:** ≤ 100 nM

**Q:** Data request, read-out IC50, for "Oc1cc(-c2cn[nH]c2)ccc1-c1cc2sc(N3CCC34CCNCC4)nc2nn1"
**A:** ≤ 100 nM

**Q:** Entry under review: "Oc1cc(-c2cn[nH]c2)ccc1-c1cc2sc(N3CC4(CCCNC4)C3)nc2nn1" . Reported IC50?
**A:** 500 to 1000 nM

**Q:** # lookup: IC50 of "CN1CCC(Nc2nc3nnc(-c4ccc(-c5cn[nH]c5)cc4O)cc3s2)CC1"
**A:** ≤ 100 nM

**Q:** IC50 for "Cc1cc(-c2ccc3nc(N(C)C4CCNCC4)sc3n2)cc2cn(C)nc12" ?
**A:** 100 to 500 nM

**Q:** # input compound: "Cc1cn2cc(-c3cc4sc(NC5CC(C)(C)N(C)C(C)(C)C5)nc4cn3)cc(F)c2n1" ; wanted: its IC50
**A:** 100 to 500 nM

**Q:** Recorded IC50 for "CN(c1nc2ccc(-c3ccc4nn(C)cc4c3)cc2s1)C1CCNCC1" , please?
**A:** 100 to 500 nM
